Source listed as ChEMBL document CHEMBL5291721.

# system_tested: Muscarinic acetylcholine receptor M2 (Homo sapiens, UniProt P08172); note: assay procedure not described here
# Sequence (P08172 whole entry): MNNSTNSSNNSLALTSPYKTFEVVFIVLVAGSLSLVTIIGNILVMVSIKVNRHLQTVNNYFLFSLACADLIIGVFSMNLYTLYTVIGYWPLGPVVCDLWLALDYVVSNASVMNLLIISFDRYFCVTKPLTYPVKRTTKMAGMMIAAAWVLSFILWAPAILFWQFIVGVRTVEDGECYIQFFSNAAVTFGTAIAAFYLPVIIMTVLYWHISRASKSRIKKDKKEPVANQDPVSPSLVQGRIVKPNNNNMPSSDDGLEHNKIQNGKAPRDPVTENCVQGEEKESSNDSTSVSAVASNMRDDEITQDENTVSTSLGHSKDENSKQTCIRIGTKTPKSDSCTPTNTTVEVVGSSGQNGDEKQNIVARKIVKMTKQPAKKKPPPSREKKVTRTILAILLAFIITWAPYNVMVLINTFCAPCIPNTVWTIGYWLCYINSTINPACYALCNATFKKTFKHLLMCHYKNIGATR
# Type: functional, cell-based
attribute_measured: AC50

Task: Which AC50 is reported for this compound? `CN(C)CCC=C1c2ccccc2C(C)(C)c2ccccc21`
Result: 0.25 µM

Task: Now the compound `CC[C@H]1CN2CCc3cc(OC)c(OC)cc3[C@@H]2C[C@@H]1C[C@H]1NCCc2cc(OC)c(OC)cc21`
Result: > 30 µM

Task: Now the compound `CC(=O)Nc1ccc(O)cc1`
Result: > 30 µM

Task: Now the compound `C[C@]1(O)CC[C@H]2[C@@H]3CCC4=CC(=O)CC[C@]4(C)[C@@]3(F)[C@@H](O)C[C@@]21C`
Result: > 10 µM

Task: Now the compound CCCC1O[C@@H]2C[C@H]3[C@@H]4CCC5=CC(=O)C=C[C@]5(C)[C@H]4[C@@H](O)C[C@]3(C)[C@]2(C(=O)CO)O1 (stereo not given in full) [BUDESONIDE]
Result: > 10 µM
